- Assay notes: Metabolism rate, pmol/min/mg at 1 μM, rat female
- Format: in vitro ADME
- Assay context: 1 μM compound
Reported metric: Rat female pmol/min/mg 1 μM

[[record]]
compound = "Cc1ccc(C(C)(C)C)cc1Cc1ccc(C(=O)NCc2cccc(CNc3ccnc(NC[C@H]4CCCO4)n3)c2)o1 [Compound 212]"
reported_metric = "Rat female pmol/min/mg 1 μM"
result = "430 pmol/min/mg"

[[record]]
compound = "COc1cc(OC)c(NC(=O)c2ccc(Cc3c(C)ccc4c3OCCC4(C)C)o2)c(OC)c1 [Compound 222]"
reported_metric = "Rat female pmol/min/mg 1 μM"
result = "167 pmol/min/mg"

[[record]]
compound = "COc1cc2c(cc1Cc1ccc(C(=O)Nc3c(OC)cc(OC)c(C#N)c3OC)o1)C(C)(C)CCC2(C)C [Compound 217]"
reported_metric = "Rat female pmol/min/mg 1 μM"
result = "203 pmol/min/mg"

[[record]]
compound = "CCOc1cccc(OCC)c1NC(=O)c1ccc(Cc2cc3c(cc2C)C(C)(C)CCC3(C)C)o1 [Compound 194]"
reported_metric = "Rat female pmol/min/mg 1 μM"
result = "205 pmol/min/mg"


Origin of measurements: patent US7101878B1
